# System: Glutamate receptor ionotropic, NMDA 3A (GRIN3A) ligand-binding domain
# method description: binders of NR3A ligand-binding domain, primary screen, biophysical, differential scanning fluorimetry, uHTS (AID 1259313)
# condition: NR3A LBD differential scanning fluorimetry, at 25 µM, hits give high values, 0% = protein alone, 100% = glycine-bound protein
Among all 340,000 compounds or so, about 8,500 (2.5%) were called active. For the sample, actives were picked, then their nearest neighbours and some compounds at random.
assay readout: Tm shift relative to glycine control (%)

CCC(C)(C)n1nnnc1CN1CCN(c2nc3ccc(C)cc3cc2C#N)CC1	0.62
COc1ccc(/C=C/C(=O)c2ccc(NS(=O)(=O)c3ccc(C)cc3)cc2)cc1O	24.6
Cc1ccc(NC(=O)c2cc(-c3ccccc3O)n[nH]2)cc1C	26.2
COc1ccccc1C(=O)NC(CCSC)C(=O)N1CCN(C/C=C/c2ccccc2)CC1 (stereo not given)	2.33
C/C(=N\Nc1ccccc1)c1cccs1	1.45
Cc1nc2ccccc2nc1N/N=C/c1ccc(O)cc1O	34.3
Cc1ccc(C)c(NC(=O)c2cc(-c3cc(C)cc(C)c3O)n[nH]2)c1	0.62
CCOC(=O)c1cc2cc(C)ccc2[nH]1	0.1
CC/C(=N/Nc1ccccc1)c1cnnc(SC)n1	1.52
COCC(C)NC(=O)CSc1nc2nn(-c3ccccc3)c(=O)c-2c2n1CCCCC2 (stereo not given)	-0.39
